System: P. falciparum
Experiment Description: In vitro toxicity against P. falciparum in culture (radiolabelled hypoxanthine incorporation / lactate dehydrogenase assay)
Format: cell-based, Plasmodium falciparum, FCQ27
Endpoint Label: In vitro activity against P. falciparum, in words

Compound: O=c1[nH]c(=O)n([C@H]2C[C@@H](OP(O)(=S)OC[C@H]3O[C@@H](n4cc(F)c(=O)[nH]c4=O)C[C@@H]3O)[C@H](CO)O2)cc1F (stereo partly drawn) [L-103 thio, [α-L,β-D]-FUdR, S = P-O]
Target: P. falciparum
Result: reduced dramatically

Compound: Nc1ncnc2c1ncn2[C@@H]1C[C@@H](OP(O)(=S)OC[C@H]2O[C@@H](n3cc(F)c(=O)[nH]c3=O)C[C@@H]2O)[C@H](CO)O1 (some centres unmarked)
Target: P. falciparum
Result: reduced dramatically

* * *

Test system: P. falciparum
Experiment Description: In vitro toxicity against P. falciparum in culture (radiolabelled hypoxanthine incorporation / lactate dehydrogenase assay)
Assay type: cell-based, Plasmodium falciparum, FCQ27
Reported Conditions: Plasmodium falciparum, Table 2; FUdR linkage position 5'; read-out: IC50
For each record, write down the corresponding IC50.
The reply should contain only the number, in µM.

State the recorded IC50 for this entry: Nc1ccn([C@H]2C[C@@H](OP(=O)(O)OC[C@H]3O[C@@H](n4cc(F)c(=O)[nH]c4=O)C[C@@H]3O)[C@H](CO)O2)c(=O)n1 [L-111] 38

Follow-up item: O=c1[nH]c(=O)n([C@H]2C[C@@H](OP(=O)(O)OC[C@H]3O[C@@H](n4cc(F)c(=O)[nH]c4=O)C[C@@H]3O)[C@H](CO)O2)cc1F [L-103] 20

O=c1[nH]c(=O)n([C@@H]2C[C@@H](OP(=O)(O)OC[C@H]3O[C@@H](n4cc(F)c(=O)[nH]c4=O)C[C@@H]3O)[C@H](CO)O2)cc1F [L-110] ? 20

Follow-up entry: Nc1ncnc2c1ncn2[C@@H]1C[C@@H](OP(=O)(O)OC[C@H]2O[C@@H](n3cc(F)c(=O)[nH]c3=O)C[C@@H]2O)[C@H](CO)O1 [L-138, β-L-dA, β-D-FUdR] 5

* * *

Give measured pIC50 for each item. Keep answers brief.
System: P. falciparum
Experiment Description: In vitro toxicity against P. falciparum in culture (radiolabelled hypoxanthine incorporation / lactate dehydrogenase assay)
Assay type: cell-based, Plasmodium falciparum, FCQ27
Reported Conditions: Plasmodium falciparum, Table 2; FUdR linkage position 5'; read-out: IC50
Schema: pIC50 number; meaning minus log10 of the concentration expressed in molar units.

For Nc1ccn([C@@H]2C[C@@H](OP(=O)(O)OC[C@H]3O[C@@H](n4cc(F)c(=O)[nH]c4=O)C[C@@H]3O)[C@H](CO)O2)c(=O)n1 [L-113] , what is its reported pIC50? 4.77

// next record O=c1[nH]c(=O)n([C@H]2C[C@H](OP(=O)(O)OC[C@H]3O[C@@H](n4cc(F)c(=O)[nH]c4=O)C[C@@H]3O)[C@@H](CO)O2)cc1F [L-101, [β-D]2 -FUdR] 4.82

# iterate: Nc1ncnc2c1ncn2[C@H]1C[C@@H](OP(=O)(O)OC[C@H]2O[C@@H](n3cc(F)c(=O)[nH]c3=O)C[C@@H]2O)[C@H](CO)O1 [L-125, α-L-dA, β-D-FUdR] 4.22

* * *

Tested on: P. falciparum
Experiment Description: In vitro toxicity against P. falciparum in culture (radiolabelled hypoxanthine incorporation / lactate dehydrogenase assay)
Assay type: cell-based, Plasmodium falciparum, FCQ27
Reported Conditions: Plasmodium falciparum, 24 h
For each of the molecules below, state its IC50.

// IC50 lookup, key: O=c1ccn([C@@H]2C[C@@H](OP(O)(=S)OC[C@H]3O[C@@H](n4cc(F)c(=O)[nH]c4=O)C[C@@H]3O)[C@H](CO)O2)c(=O)[nH]1 (stereo partly shown) > 200 µM

How about Nc1ncnc2c1ncn2[C@@H]1O[C@@H](CO)[C@H](O)[C@H]1O ? > 200 µM

Also O=c1[nH]c(=O)n([C@H]2C[C@@H](OP(O)(=S)OC[C@H]3O[C@@H](n4cc(F)c(=O)[nH]c4=O)C[C@@H]3O)[C@H](CO)O2)cc1F (stereo partly drawn) [L-103 thio, [α-L,β-D]-FUdR, S = P-O] , if possible. > 200 µM

Note, next up: Nc1ncnc2c1ncn2[C@H]1O[C@@H](CO)[C@H](O)[C@@H]1O > 200 µM

Likewise for Nc1ncnc2c1ncn2[C@@H]1C[C@@H](OP(O)(=S)OC[C@H]2O[C@@H](n3cc(F)c(=O)[nH]c3=O)C[C@@H]2O)[C@H](CO)O1 (stereo partly shown) ? 100 µM

Query O=c1[nH]c(=O)n([C@H]2C[C@H](OP(O)(=S)OC[C@H]3O[C@@H](n4cc(F)c(=O)[nH]c4=O)C[C@@H]3O)[C@@H](CO)O2)cc1F (stereo partly drawn) [L-128, β-D, β-D-FUdR] S = P-O] next 1.5 µM

Next: Nc1ncnc2c1ncn2[C@@H]1O[C@@H](CO)[C@H](O)[C@@H]1O > 200 µM
